B1: glmS ribozyme (parent)
chain: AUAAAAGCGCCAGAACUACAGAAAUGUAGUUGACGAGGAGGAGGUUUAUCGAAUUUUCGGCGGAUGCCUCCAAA

- Variants of: B1
- EXPERIMENT_SUMMARY: self-cleavage kobs at 2500 uM GlcN6P; higher = faster cleavage; RNA array
- CONDITION_PARAMETERS: with glucosamine-6-phosphate
This sample holds only a part of the variants without activity.
ASSAY_METRIC: self-cleavage kobs at 2500 uM GlcN6P (s⁻¹)
Numbers only, in s⁻¹.

Items follow; give self-cleavage kobs at 2500 uM GlcN6P for each.
1. AUAAAAGCGCCAAAACUACAGAAAUGUAGUUGACGAGGAGGAGGUUUAUCGAAUUGUCGGCGGAUGCCUCCAAA [G13A U56G]
2. AUAAAAGCGCCAGAAUUACAGAAAUGUAGUUGACGAGGUGGAGGUUUAUCGAAGUUUCGGCGGAUGCCUCCAAA [C16U A39U U54G]
3. AUAAAAGCGCCAGAACUACAGAAAUGUAUUUGACGAGGAGGAGGCUUAUCGAAUUUUCGGCGGAUGCCUCCAAA [G29U U45C]
4. AUAAAAGCGCCAGAACUACAGAAAUGUAGUUGACGAGGAGGAGGUUUAUCGAAUUUUCGGCGGAUUGCUCCAAA [G66U C67G]
5. AUAAAAGCGCCUGAACUACAGAAAUGUAGUUGACGAGGAGGAGCUUUAUCGAUUUUUCGGCGGAUGCCUCCAAA [A12U G44C A53U]
6. AUAAAAGCGCCAUAACUACAGAAAUGUAGUUGACGAGGAGGAGGUUUAUCGAAUGUUCGGCGGAUGCCUCCAAA [G13U U55G]
7. AUAAAAGUGCCAGAACUACAGAAAUGUAGUUGAUGAGGAGGUGGUUUAUCGAAUUUUCGGCGGAAGGCUCCAAA [C8U C34U A42U U65A C67G]

Response:
0.000264
0.00743
0.000204
0.000418
6.46e-05
0.000643
5.58e-05

Items follow; give self-cleavage kobs at 2500 uM GlcN6P for each.
1. AUAAAAGCGCCAGAACUACAGAAAUGUAAUUGACGAAGAGGAGGUUUAUCGAAUUUUCGGCGGAUGCCUCCAAA [G29A G37A]
2. AUAAAAGCGCCAGCACUACAGAAAUGUAGUUGACGAGGAGGAGGGUUAUCGAAUUUUCGGCGGAUGCCUCAAAA [A14C U45G C71A]

Response:
1: 0.000156; 2: 4.43e-05

Measured values drawn from the supplement of paper PMC7125110 for this set.
